molecular target: hERG (KCNH2) (Homo sapiens, UniProt Q12809); assay: Inhibition of human ERG at 300 uM
Sequence (Q12809 whole entry): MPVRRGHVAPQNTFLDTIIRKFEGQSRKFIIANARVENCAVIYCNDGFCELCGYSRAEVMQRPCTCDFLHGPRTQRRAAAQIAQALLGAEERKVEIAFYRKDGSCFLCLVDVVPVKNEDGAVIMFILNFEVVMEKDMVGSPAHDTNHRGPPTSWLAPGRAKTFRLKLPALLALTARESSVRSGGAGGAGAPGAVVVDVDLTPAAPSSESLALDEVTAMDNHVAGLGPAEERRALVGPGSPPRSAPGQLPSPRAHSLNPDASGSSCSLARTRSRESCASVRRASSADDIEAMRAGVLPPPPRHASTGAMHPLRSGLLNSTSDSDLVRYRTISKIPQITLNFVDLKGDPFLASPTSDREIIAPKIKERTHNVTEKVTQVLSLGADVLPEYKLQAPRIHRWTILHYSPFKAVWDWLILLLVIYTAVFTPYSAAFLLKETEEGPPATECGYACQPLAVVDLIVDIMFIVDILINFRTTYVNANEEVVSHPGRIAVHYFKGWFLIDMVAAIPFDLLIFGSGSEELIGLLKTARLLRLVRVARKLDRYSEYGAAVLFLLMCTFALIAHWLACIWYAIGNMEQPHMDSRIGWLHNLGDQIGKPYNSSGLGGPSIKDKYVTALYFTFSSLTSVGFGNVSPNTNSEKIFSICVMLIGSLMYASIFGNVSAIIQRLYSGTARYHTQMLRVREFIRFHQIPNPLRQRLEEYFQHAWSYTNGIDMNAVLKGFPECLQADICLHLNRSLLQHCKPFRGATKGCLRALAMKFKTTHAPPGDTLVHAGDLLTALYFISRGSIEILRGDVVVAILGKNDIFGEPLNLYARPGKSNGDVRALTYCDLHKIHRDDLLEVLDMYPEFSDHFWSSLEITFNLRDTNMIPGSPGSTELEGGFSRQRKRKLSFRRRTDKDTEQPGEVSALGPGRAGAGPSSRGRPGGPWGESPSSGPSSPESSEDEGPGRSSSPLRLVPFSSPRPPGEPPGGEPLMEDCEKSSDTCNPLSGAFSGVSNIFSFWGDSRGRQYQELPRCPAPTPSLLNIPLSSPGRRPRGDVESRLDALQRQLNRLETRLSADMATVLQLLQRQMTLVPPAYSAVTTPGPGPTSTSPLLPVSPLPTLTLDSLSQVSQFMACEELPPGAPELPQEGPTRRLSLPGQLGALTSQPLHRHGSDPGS
Quantity Measured: inhibition at 300 µM
Express the reported value numerically, then name its unit.

Look over these answered cases.
# Compound Smiles, Observed
records = [
    ("CC[C@H]1OC(=O)[C@H](C)[C@@H](O[C@H]2C[C@@](C)(OC)[C@@H](O)[C@H](C)O2)[C@H](C)[C@@H](O[C@@H]2O[C@H](C)C[C@H](N(C)C(C)C)[C@H]2O)[C@](C)(O)C[C@@H](C)[C@H](OCC(=O)N(C)C)[C@H](C)[C@@H](O)[C@]1(C)O", "51%"),
    ("CC[C@H]1OC(=O)[C@H](C)[C@@H](O[C@H]2C[C@@](C)(OC)C[C@H](C)O2)[C@H](C)[C@@H](O[C@@H]2O[C@H](C)C[C@H](N(C)C(C)C)[C@H]2O)[C@](C)(O)C[C@@H](C)[C@H](OCC(=O)NC)[C@H](C)[C@@H](O)[C@]1(C)O", "97%"),
    ("CC[C@H]1OC(=O)[C@H](C)[C@@H](O[C@H]2C[C@@](C)(OC)C[C@H](C)O2)[C@H](C)[C@@H](O[C@@H]2O[C@H](C)C[C@H](N(C)C3CCC3)[C@H]2O)[C@](C)(O)C[C@@H](C)[C@H](O)[C@H](C)[C@@H](O)[C@]1(C)O", "100%"),
]

Consider now this further molecule.
Query string: Using the record for CC[C@H]1OC(=O)[C@H](C)[C@@H](O[C@H]2C[C@@](C)(OC)[C@@H](O)[C@H](C)O2)[C@H](C)[C@@H](O[C@@H]2O[C@H](C)C[C@H](N(C)C(C)C)[C@H]2O)[C@](C)(O)C[C@@H](C)[C@H](OCC(N)=O)[C@H](C)[C@@H](O)[C@]1(C)O , report its inhibition at 300 µM.
Result string: 29%

----------
biological target: Motilin receptor (Oryctolagus cuniculus); assay: Agonist activity at motilin receptor in rabbit smooth muscle assessed as maximal possible tissue contraction
Sequence (A5A4K8 whole entry): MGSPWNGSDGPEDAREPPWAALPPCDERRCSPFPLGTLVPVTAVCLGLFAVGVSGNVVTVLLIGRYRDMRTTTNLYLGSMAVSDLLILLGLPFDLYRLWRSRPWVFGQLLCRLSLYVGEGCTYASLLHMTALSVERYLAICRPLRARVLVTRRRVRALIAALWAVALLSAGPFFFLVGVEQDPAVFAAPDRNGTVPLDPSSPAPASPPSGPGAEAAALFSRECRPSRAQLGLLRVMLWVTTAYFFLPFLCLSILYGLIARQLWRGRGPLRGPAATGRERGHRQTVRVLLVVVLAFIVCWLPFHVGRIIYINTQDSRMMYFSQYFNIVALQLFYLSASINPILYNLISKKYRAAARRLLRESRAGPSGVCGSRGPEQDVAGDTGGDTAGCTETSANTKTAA
Quantity Measured: pEC50
A value of pEC50 is the negative decimal logarithm of a concentration given in moles per litre.

Look over these answered cases.
# Compound Smiles, pEC50
data = [
    ("CC[C@H]1OC(=O)[C@H](C)[C@@H](O[C@H]2C[C@@](C)(OC)C[C@H](C)O2)[C@H](C)[C@@H](O[C@@H]2O[C@H](C)C[C@H](N(C)CC(C)(C)O)[C@H]2O)[C@](C)(O)C[C@@H](C)[C@H](O)[C@H](C)[C@@H](O)[C@]1(C)O", 7.62),
    ("CC[C@H]1OC(=O)[C@H](C)[C@@H](O[C@H]2C[C@@](C)(OC)C[C@H](C)O2)[C@H](C)[C@@H](O[C@@H]2O[C@H](C)C[C@H](N(C)C(C)C)[C@H]2O)[C@](C)(O)C[C@@H](C)[C@H](OCC(=O)N(C)C)[C@H](C)[C@@H](O)[C@]1(C)O", 6.72),
]

Consider now this further molecule.
Query string: Using the record for CC[C@H]1OC(=O)[C@H](C)[C@@H](O[C@H]2C[C@@](C)(OC)C[C@H](C)O2)[C@H](C)[C@@H](O[C@@H]2O[C@H](C)C[C@H](N(C)CCO)[C@H]2O)[C@](C)(O)C[C@@H](C)[C@H](O)[C@H](C)[C@@H](O)[C@]1(C)O , report its pEC50.
Result string: 7.20

----------
target: Motilin receptor (Oryctolagus cuniculus); assay: Agonist activity at motilin receptor in rabbit smooth muscle assessed as maximal possible tissue contraction
Quantity Measured: EC50 (nM)
Kindly answer with a numeric value in nM, unit omitted.

Look over these answered cases.
# Compound Smiles, Observed
records = [
    ("CC[C@H]1OC(=O)[C@H](C)[C@@H](O[C@H]2C[C@@](C)(OC)C[C@H](C)O2)[C@H](C)[C@@H](O[C@@H]2O[C@H](C)C[C@H](N(C)C(C)C)[C@H]2O)[C@](C)(O)C[C@@H](C)[C@H](O)[C@H](C)[C@@H](O)[C@]1(C)O", 59),
    ("CC[C@H]1OC(=O)[C@H](C)[C@@H](O[C@H]2C[C@@](C)(OC)C[C@H](C)O2)[C@H](C)[C@@H](O[C@@H]2O[C@H](C)C[C@H](N(C)C(C)C)[C@H]2O)[C@](C)(O)C[C@@H](C)[C@H](OCC(N)=O)[C@H](C)[C@@H](O)[C@]1(C)O", 36),
    ("CC[C@H]1OC(=O)[C@H](C)[C@@H](O[C@H]2C[C@@](C)(OC)C[C@H](C)O2)[C@H](C)[C@@H](O[C@@H]2O[C@H](C)C[C@H](N(C)C(C)C)[C@H]2O)[C@](C)(O)C[C@@H](C)[C@H](OCC(=O)NC)[C@H](C)[C@@H](O)[C@]1(C)O", 17),
]

Query string: Using the record for CC[C@H]1OC(=O)[C@H](C)[C@@H](O[C@H]2C[C@@](C)(OC)C[C@H](C)O2)[C@H](C)[C@@H](O[C@@H]2O[C@H](C)C[C@H](N(C)C[C@H](C)O)[C@H]2O)[C@](C)(O)C[C@@H](C)[C@H](O)[C@H](C)[C@@H](O)[C@]1(C)O , report its EC50.
Result string: 140

Query string: Entry CC[C@H]1OC(=O)[C@H](C)[C@@H](O[C@H]2C[C@@](C)(OC)C[C@H](C)O2)[C@H](C)[C@@H](O[C@@H]2O[C@H](C)C[C@H](N(C)C3CCC3)[C@H]2O)[C@](C)(O)C[C@@H](C)[C@H](O)[C@H](C)[C@@H](O)[C@]1(C)O please
Result string: 120

----------
molecular target: hERG (KCNH2) (Homo sapiens); test: Inhibition of human ERG at 300 uM
# reported inhibition at 300 µM; entries follow
Kindly answer with a numeric value in %, unit omitted.

Look over these answered cases.
# Compound Smiles, inhibition at 300 µM / %
rows = [
    ("CC[C@H]1OC(=O)[C@H](C)[C@@H](O[C@H]2C[C@@](C)(OC)C[C@H](C)O2)[C@H](C)[C@@H](O[C@@H]2O[C@H](C)C[C@H](N(C)CC(C)(C)O)[C@H]2O)[C@](C)(O)C[C@@H](C)[C@H](O)[C@H](C)[C@@H](O)[C@]1(C)O", 100),
    ("CC[C@H]1OC(=O)[C@H](C)[C@@H](O[C@H]2C[C@@](C)(OC)C[C@H](C)O2)[C@H](C)[C@@H](O[C@@H]2O[C@H](C)C[C@H](N(C)C[C@H](C)O)[C@H]2O)[C@](C)(O)C[C@@H](C)[C@H](O)[C@H](C)[C@@H](O)[C@]1(C)O", 100),
    ("CC[C@H]1OC(=O)[C@H](C)[C@@H](O[C@H]2C[C@@](C)(OC)C[C@H](C)O2)[C@H](C)[C@@H](O[C@@H]2O[C@H](C)C[C@H](N(C)C(C)C)[C@H]2O)[C@](C)(O)C[C@@H](C)[C@H](OCC(=O)N(C)C)[C@H](C)[C@@H](O)[C@]1(C)O", 100),
]

Query string: Using the record for CC[C@H]1OC(=O)[C@H](C)[C@@H](O[C@H]2C[C@@](C)(OC)C[C@H](C)O2)[C@H](C)[C@@H](O[C@@H]2O[C@H](C)C[C@H](N(C)C(C)C)[C@H]2O)[C@](C)(O)C[C@@H](C)[C@H](OCC(N)=O)[C@H](C)[C@@H](O)[C@]1(C)O , report its inhibition at 300 µM.
Result string: 86

----------
# reported Activity; entries follow
biological target: Motilin receptor (Oryctolagus cuniculus) (UniProt A5A4K8); assay: Agonist activity at motilin receptor in rabbit smooth muscle assessed as tachyphylaxis at EC90 concentration after 4th dose; assay type: functional
Sequence (A5A4K8 as listed by the source): as the sequence (A5A4K8 whole entry) above
Kindly answer with a numeric value in %, unit omitted.

# Molecule, Activity (%)
data = [
    ("CC[C@H]1OC(=O)[C@H](C)[C@@H](O[C@H]2C[C@@](C)(OC)[C@@H](O)[C@H](C)O2)[C@H](C)[C@@H](O[C@@H]2O[C@H](C)C[C@H](N(C)C(C)C)[C@H]2O)[C@]2(C)CC(C)=C(O2)[C@H](C)C(=O)[C@]1(C)OC", 22),
    ("CC[C@H]1OC(=O)[C@H](C)[C@@H](O[C@H]2C[C@@](C)(OC)CC(C)O2)[C@H](C)[C@@H](O[C@@H]2O[C@H](C)C[C@H](N(C)CC)[C@H]2O)C2(C)CC(C)=C(O2)[C@H](C)[C@@H](O)[C@H]1C (single isomer, unassigned)", 9),
    ("CC[C@H]1OC(=O)[C@H](C)[C@@H](O[C@H]2C[C@@](C)(OC)C[C@H](C)O2)[C@H](C)[C@@H](O[C@@H]2O[C@H](C)C[C@H](N(C)C(C)C)[C@H]2O)[C@](C)(O)C[C@@H](C)[C@H](O)[C@H](C)[C@@H](O)[C@]1(C)O", 88),
]

Query string: Using the record for CC[C@H]1OC(=O)[C@H](C)[C@@H](O[C@H]2C[C@@](C)(OC)C[C@H](C)O2)[C@H](C)[C@@H](O[C@@H]2O[C@H](C)C[C@H](N(C)CCO)[C@H]2O)[C@](C)(O)C[C@@H](C)[C@H](O)[C@H](C)[C@@H](O)[C@]1(C)O , report its Activity.
Result string: 94
